Values were extracted from ChEMBL document CHEMBL4699525.

experiment: Cytotoxicity against human HEK293 cells assessed as inhibition of cell growth at 25 uM incubated for 48 hrs by MTT assay; assay type: cell-based
Binary call on inhibition at 48 h, 25 µM: Fulfilled from 20% upward, Not fulfilled beneath that.

Can Brc1ccccc1-n1cc(COc2ccc3c(c2)CCC3)nn1 be said to have inhibition at 48 h, 25 µM at or above 20%?
Not fulfilled

Can COc1ccccc1NC(=O)Cn1cc(COc2ccc3c(c2)CCC3)nn1 be said to have inhibition at 48 h, 25 µM at or above 20%?
Fulfilled

Can Cc1cccc(-n2cc(COc3ccc4c(c3)CCC4)nn2)c1 be said to have inhibition at 48 h, 25 µM at or above 20%?
Fulfilled

Can COc1cccc(-n2cc(COc3ccc4c(c3)CCC4)nn2)c1 be said to have inhibition at 48 h, 25 µM at or above 20%?
Fulfilled

Can Cc1ccc([N+](=O)[O-])cc1-n1cc(COc2ccc3c(c2)CCC3)nn1 be said to have inhibition at 48 h, 25 µM at or above 20%?
Fulfilled

Can Cc1cc(C)c(-n2cc(COc3ccc4c(c3)CCC4)nn2)c(C)c1 be said to have inhibition at 48 h, 25 µM at or above 20%?
Not fulfilled

Can COc1ccc(-n2cc(COc3ccc4c(c3)CCC4)nn2)cc1 be said to have inhibition at 48 h, 25 µM at or above 20%?
Fulfilled

Can Fc1ccccc1-n1cc(COc2ccc3c(c2)CCC3)nn1 be said to have inhibition at 48 h, 25 µM at or above 20%?
Fulfilled

Can c1ccc(-n2cc(COc3ccc4c(c3)CCC4)nn2)cc1 be said to have inhibition at 48 h, 25 µM at or above 20%?
Fulfilled

###

I'd appreciate it if you could supply MIC values for the items below.
biological target: Enoyl-[acyl-carrier-protein] reductase [NADH] (Mycobacterium tuberculosis) (UniProt P9WGR1); assay: Inhibition of InhA in Mycobacterium tuberculosis H37Rv assessed antitubercular activity by measuring inhibition of bacterial growth incubated for 7 days by MABA assay; conditions: time 7.0 day
Sequence (P9WGR1 whole entry): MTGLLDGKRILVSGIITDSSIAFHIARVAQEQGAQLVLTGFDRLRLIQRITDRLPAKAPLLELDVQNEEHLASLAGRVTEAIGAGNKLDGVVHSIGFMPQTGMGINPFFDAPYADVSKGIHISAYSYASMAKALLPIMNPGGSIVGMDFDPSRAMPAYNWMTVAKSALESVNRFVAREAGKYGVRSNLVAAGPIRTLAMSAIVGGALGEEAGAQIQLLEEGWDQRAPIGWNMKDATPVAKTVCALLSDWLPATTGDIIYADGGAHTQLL

Entry Cc1ccccc1NC(=O)Cn1cc(COc2ccc3c(c2)CCC3)nn1 ; MIC = > 25 µM

Entry Brc1ccc(-n2cc(COc3ccc4c(c3)CCC4)nn2)cc1 ; MIC = > 25 µM

Entry O=C(Cn1cc(COc2ccc3c(c2)CCC3)nn1)Nc1ccccc1 ; MIC = > 25 µM

Entry O=C(O)c1cn(C2CC2)c2cc(N3CCNCC3)c(F)cc2c1=O ; MIC = 1.56 µM

Entry Cc1ccc(NC(=O)Cn2cc(COc3ccc4c(c3)CCC4)nn2)cc1 ; MIC = > 25 µM

Entry Cc1ccc([N+](=O)[O-])cc1NC(=O)Cn1cc(COc2ccc3c(c2)CCC3)nn1 ; MIC = > 25 µM

Entry CCc1ccc(-n2cc(COc3ccc4c(c3)CCC4)nn2)cc1 ; MIC = > 25 µM

Entry Brc1cccc(-n2cc(COc3ccc4c(c3)CCC4)nn2)c1 ; MIC = > 25 µM

Entry Clc1ccc(-n2cc(COc3ccc4c(c3)CCC4)nn2)cc1 ; MIC = > 25 µM

Entry Cc1ccc(-n2cc(COc3ccc4c(c3)CCC4)nn2)cc1 ; MIC = > 25 µM

Entry Brc1ccccc1-n1cc(COc2ccc3c(c2)CCC3)nn1 ; MIC = 6.25 µM

Entry Cc1ccc([N+](=O)[O-])cc1-n1cc(COc2ccc3c(c2)CCC3)nn1 ; MIC = 12.5 µM

Entry Cc1cccc(-n2cc(COc3ccc4c(c3)CCC4)nn2)c1 ; MIC = 12.5 µM

Entry COc1ccc(NC(=O)Cn2cc(COc3ccc4c(c3)CCC4)nn2)cc1 ; MIC = > 25 µM

Entry Cc1ccc(-n2cc(COc3ccc4c(c3)CCC4)nn2)c(C)c1 ; MIC = 1.56 µM

Entry O=C(Cn1cc(COc2ccc3c(c2)CCC3)nn1)Nc1cccc([N+](=O)[O-])c1 ; MIC = > 25 µM

Entry COc1ccccc1NC(=O)Cn1cc(COc2ccc3c(c2)CCC3)nn1 ; MIC = 6.25 µM

Entry O=[N+]([O-])c1cccc(-n2cc(COc3ccc4c(c3)CCC4)nn2)c1 ; MIC = > 25 µM

Entry O=C(Cn1cc(COc2ccc3c(c2)CCC3)nn1)Nc1ccc(F)cc1 ; MIC = > 25 µM

Entry c1ccc(-n2cc(COc3ccc4c(c3)CCC4)nn2)cc1 ; MIC = 25 µM

Entry COc1ccccc1-n1cc(COc2ccc3c(c2)CCC3)nn1 ; MIC = 12.5 µM

Entry CCc1ccc(NC(=O)Cn2cc(COc3ccc4c(c3)CCC4)nn2)cc1 ; MIC = > 25 µM

Entry COc1cccc(NC(=O)Cn2cc(COc3ccc4c(c3)CCC4)nn2)c1 ; MIC = > 25 µM
